target-or-test-system: T1, full-length human GPC3 (human, UniProt P51654 25-554)
T1 construct: On CHO (DXB11) or SK-HEP-1 (SK-03) transfectants; also used here for the GPC3 on the hepatoma lines HepG2 and HuH-7; also called human glypican 3
T1 sequence (P51654 25-554 limits assumed): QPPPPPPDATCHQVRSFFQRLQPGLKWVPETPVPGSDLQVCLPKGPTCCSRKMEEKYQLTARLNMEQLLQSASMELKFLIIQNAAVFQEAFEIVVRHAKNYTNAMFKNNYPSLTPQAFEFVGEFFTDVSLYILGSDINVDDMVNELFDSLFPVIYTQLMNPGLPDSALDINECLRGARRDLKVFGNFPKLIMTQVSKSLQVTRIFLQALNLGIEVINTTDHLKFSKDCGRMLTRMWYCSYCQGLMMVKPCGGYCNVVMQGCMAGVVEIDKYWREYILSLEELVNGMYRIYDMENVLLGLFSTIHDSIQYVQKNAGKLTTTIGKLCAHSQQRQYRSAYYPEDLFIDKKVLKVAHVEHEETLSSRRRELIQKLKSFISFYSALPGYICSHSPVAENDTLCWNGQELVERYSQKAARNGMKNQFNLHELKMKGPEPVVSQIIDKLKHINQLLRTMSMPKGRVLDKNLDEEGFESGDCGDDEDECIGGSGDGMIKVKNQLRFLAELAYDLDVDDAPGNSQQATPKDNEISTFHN
test-summary: BIACORE; the form of GPC3 used is not given

binder: M1E7 (antibody, human IgG1, kappa, V domains shown, Mouse monoclonal from hybridoma; also called M1E07) VH: EVQLQQSGPELVKPGASVKISCKASGYSFTGYYMHWVKQSPEKSLEWIGEINPSTGGTTYNQKFKAKATLTVDKSSSTAYMQLKSLTSEDSAVYYCARRGGLTGTSFFAYWGQGTLVTVSA VL: DVVMTQTPLSLSVTIGQPASISCKSSQSLLYSNGKTYLNWLQQRPGQAPKHLMYQVSKLDPGIPDRFSGSGSETDFTLKISRVEAEDLGVYYCLQSTYYPLTFGAGTKLELKR
unit-text: s⁻¹
koff: 0.000427

binder: M11F1 (antibody, V domains shown, Mouse monoclonal from hybridoma) VH: QVTLKESGPGILQPSQTLSLTCSFSGFSLSIYGMGVGWIRQPSGKGLEWLANIWWNDDKYYNSALKSRLTISKDTSNNQVFLKISSVDTADTATYYCAQIGYFYFDYWGQGTTLTVSS VL: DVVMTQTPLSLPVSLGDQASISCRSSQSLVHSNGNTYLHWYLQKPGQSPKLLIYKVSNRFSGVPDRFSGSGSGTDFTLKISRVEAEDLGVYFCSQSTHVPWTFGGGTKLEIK
unit-text: s⁻¹
koff: 3.5e-05

binder: M10D2 (antibody, V domains shown, Mouse monoclonal from hybridoma) VH: QVQLQQPGAELVKPGASVKLSCKASGYTFTSYWMHWVKQRPGQGLEWIGEIDPSDSYTYYNQKFRGKATLTVDKSSNTAYMQLSSLTSEDSAVYYCSRSNLGDGHYRFPAFPYWGQGTLVTVSA VL: DIVLTQSPATLSVTPGDRVSLSCRASHSISNFLHWYPQKSHESPRLLIKYASQSISGIPSRFSGNGSGTDFTLSINSVETEDFGMYFCQQSNIWSLTFGAGTKLELK
unit-text: s⁻¹
koff: 0.000496
